SYSTEM_TESTED: GLP-1R (Homo sapiens)
MEASUREMENT_NOTES: EC20 GLP-1(9-36) PAM cAMP Assay: dose response of compound in the presence of fixed concentration of GLP-1(9-36)
ASSAY_CONDITIONS: GLP-1R CRE-bla CHO-K1 cells, in presence of fixed concentration of GLP-1(9-36), 30 min at 37° C.
pEC50: −log10 of the molar value.
PROPERTY_NAME: pEC50

| COMPOUND | pEC50 |
| --- | --- |
| CC(C)(C)c1ccc(C(=O)N[C@@H](Cc2ccc(-c3ncc(C4=CCC([C@H]5CC[C@H](C)CC5)CC4)cn3)cc2)C(=O)NCCC(=O)O)s1 (stereo partly drawn) [Compound 113] | > 6.30 |
| C[C@@H](NC(=O)[C@H](Cc1ccc(-c2ncc(C3=CCC(c4ccccc4)CC3)cn2)cc1)NC(=O)c1ccc(C(C)(C)C)s1)C(=O)O (stereo partly drawn) [Compound 10] | > 6.30 |

Task: Which pEC50 value belongs to CC(C)(C)c1ccc(C(=O)N[C@@H](Cc2ccc(-c3ncc(C4=CCC(C(C)(C)C)CC4)cn3)cc2)C(=O)N2CC(C(=O)O)C2)s1 (stereo partly drawn) [Compound 36] ?
Output: > 6.30

Task: Please answer likewise for CC[C@H]1CC[C@H](C2CC=C(c3cnc(-c4ccc(C[C@H](NC(=O)c5ccc(CC(C)C)s5)C(=O)N5CC(C(=O)O)C5)cc4)nc3)CC2)CC1 (stereo partly drawn) [Compound 96]
Output: > 6.30

Task: Please answer likewise for CCCC1CCC(C2CC=C(c3cnc(-c4ccc(C[C@H](NC(=O)c5cc6cc(OC)ccc6[nH]5)C(=O)N5CC(C(=O)O)C5)cc4)nc3)CC2)CC1 (stereo partly drawn) [Compound 33]
Output: 5.60 to 6.30

* * *

SYSTEM_TESTED: GLP-1R (Homo sapiens, UniProt P43220)
Construct: host or cells: CRE-bla CHO-K1
Sequence (P43220 24-463): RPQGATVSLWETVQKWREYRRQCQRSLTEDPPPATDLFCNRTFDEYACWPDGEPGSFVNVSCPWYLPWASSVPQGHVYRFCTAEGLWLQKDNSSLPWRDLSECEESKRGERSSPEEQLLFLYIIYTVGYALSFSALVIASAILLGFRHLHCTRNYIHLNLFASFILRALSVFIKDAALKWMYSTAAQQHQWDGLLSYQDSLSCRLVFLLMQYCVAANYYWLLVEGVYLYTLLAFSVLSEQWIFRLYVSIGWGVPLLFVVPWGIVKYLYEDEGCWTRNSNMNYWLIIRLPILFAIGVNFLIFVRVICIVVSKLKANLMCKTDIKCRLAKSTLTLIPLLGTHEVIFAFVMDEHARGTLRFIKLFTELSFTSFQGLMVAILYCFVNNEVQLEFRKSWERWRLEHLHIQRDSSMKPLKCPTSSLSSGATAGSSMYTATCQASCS
Sequence (P01275 100-127 partner limits assumed): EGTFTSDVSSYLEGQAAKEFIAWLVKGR
MEASUREMENT_NOTES: EC20 GLP-1(9-36) PAM cAMP Assay: dose response of compound in the presence of fixed concentration of GLP-1(9-36)
Assay type: cell-based
ASSAY_CONDITIONS: GLP-1R CRE-bla CHO-K1 cells, in presence of fixed concentration of GLP-1(9-36), 30 min at 37° C.
pEC50: −log10 of the molar value.
PROPERTY_NAME: pEC50

Illustrative cases are given below, each with its answer.
| COMPOUND | PROPERTY_NAME | MEASUREMENT |
| --- | --- | --- |
| CC(C)(C)c1ccc(C(=O)N[C@@H](Cc2ccc(-c3ncc(C4=CCC([C@H]5CC[C@H](C)CC5)CC4)cn3)cc2)C(=O)N2CCC[C@H]2C(=O)O)s1 (stereo partly drawn) | pEC50 | > 6.30 |
| CC(C)(C)c1ccc(C(=O)N[C@@H](Cc2ccc(-c3ncc(C4=CCC([C@H]5CC[C@H](C)CC5)CC4)cn3)cc2)C(=O)N2CC(C(=O)O)C2)s1 (mixture of isomers) | pEC50 | > 6.30 |

Let us move to another entry and its pEC50.
Task: Which pEC50 value belongs to CCCCCC1CCC(C2CC=C(c3cnc(-c4ccc(C[C@H](NC(=O)c5ccc(C(C)(C)C)s5)C(=O)N5CC[C@H](C(=O)O)C5)cc4)nc3)CC2)CC1 (stereo partly drawn) ?
Output: > 6.30
